# Test system: A375 cells (parental)
# procedure text: Kinase inhibitor library screening, PrestoBlue cell viability, 1 or 10 μM, 72 h
# condition set: A375 Parental, 10μΜ, 72 h
measured quantity: Cell viability in kinase inhibitor library screening, A375 Parental, 10μΜ
Kindly provide the number alone.

Observe how each entry below is paired with its result.
CNC(=O)Nc1ccc(-c2nc(N3CC4CCC(C3)O4)c3cnn(C4CCC5(CC4)OCCO5)c3n2)cc1; 19.3
CO[C@H]1C[C@@H]2CC[C@@H](C)[C@@](O)(O2)C(=O)C(=O)N2CCCC[C@H]2C(=O)O[C@H]([C@H](C)C[C@@H]2CC[C@@H](OC(=O)C(C)(CO)CO)[C@H](OC)C2)CC(=O)[C@H](C)/C=C(\C)[C@@H](O)[C@@H](OC)C(=O)[C@H](C)C[C@H](C)/C=C/C=C/C=C/1C; 73.5
CO[C@H]1C[C@@H]2CC[C@@H](C)[C@@](O)(O2)C(=O)C(=O)N2CCCC[C@H]2C(=O)O[C@H]([C@H](C)C[C@@H]2CC[C@@H](O)[C@H](OC)C2)CC(=O)[C@H](C)/C=C(\C)[C@@H](O)[C@@H](OC)C(=O)[C@H](C)C[C@H](C)/C=C/C=C/C=C/1C [Rapamycin (Sirolimus)]; 72.3
Cc1nc(NC(=O)N2CCC[C@H]2C(N)=O)sc1-c1csc(C(C)(C)C)n1; 72.4
O=C1NC(=O)/C(=C/c2ccc(-c3ccc(F)cc3O)o2)S1; 82.9
c1cncc(CN2CCC(n3ncc4c(N5CCOCC5)nc(-c5ccc6[nH]ccc6c5)nc43)CC2)c1; 22.3
O=C(NCCCNc1nc(Nc2cccc(NC(=O)N3CCCC3)c2)ncc1I)c1cccs1; 38.1
Cc1ccccc1-n1c(Cn2cnc3c(N)ncnc32)nc2cccc(C)c2c1=O; 90.3
COc1ccc(-c2ccc3c(N4CCOCC4)nc(N4C[C@@H](C)O[C@@H](C)C4)nc3n2)cc1CO; 24.0
CNC(=O)c1ccc(C)c(-n2c(C)cc(OCc3ccc(F)cc3F)c(Br)c2=O)c1; 84.4

Let me know recorded Cell viability in kinase inhibitor library screening, A375 Parental, 10μΜ for "COC[C@H]1OC(=O)c2coc3c2[C@@]1(C)C1=C(C3=O)[C@@H]2CCC(=O)[C@@]2(C)C[C@H]1OC(C)=O" , thanks. 77.1

For the molecule COc1ccc(-c2cc3c(C)nc(N)nc3n([C@H]3CC[C@H](OCCO)CC3)c2=O)cn1 [PF-04691502, reference compound] , give its reported Cell viability in kinase inhibitor library screening, A375 Parental, 10μΜ. 2.9

Complete the entry with Cell viability in kinase inhibitor library screening, A375 Parental, 10μΜ for O=c1c(O)c(-c2ccc(O)c(O)c2)oc2cc(O)cc(O)c12 [Quercetin (Sophoretin)] 94.2
